experimental-details: soluble on expression in E. coli; label from the status in PepcDB or PDB records
parameter-measured: soluble on expression in E. coli

>>> result_value("MEEKPKYKRILLKLSGEAFAGEQGYGIDPAFLEYISHEIKNVYDLGVQVAIVIGGGNIFRGFQGKEIGVDRATADYMGMLATVINALALQSALENHVNIPTRVLSAIEMRQVAEPYIRRRAIRHLEKGRIVIFAGGTGNPFFSTDTAAALRAAEIGAEVLIKATKVGGIYDKDPEKYPDAVLIKEISYLEVINMGLKVMDHTALTLCKENEIPIIVLNVKEKGNLRRAVLGEEVGSVVRGLEHHHHHH")
"not soluble"
>>> result_value("MSASVSLTTPVSVSCLINDVNPSVKAKKEDATAVTTTQAPKIAEAIHRSTPTLADNVLYDSTSYTHGVTTGSTNVPISSGQRPQQADYSLALLAKDVYAPTSGNLNGFVRLSDERLLAAGIDPTALSDSASGFLAGIYSDNQQYVLSFAGTNDRHDWLSNIRQAVGYEDVQYNEAVALGKTAKMAFGDALVITGHSLGGGLAATAALATGTFAVTFNAAGVAKNTLKRLGMDSAKARRSAENGGIRSYSEKYDLLTGIQELTSLIPNAVGHKIVLANSDKLTGVDDWLPHKHLERRISAHSIEKVLSSMSEQQPWERRYV")
"not soluble"
